Listing of entries alongside the reported Total Cell Count.
# System: U2OS
# protocolDetails: Multiplex assay against U2OS
# Type: toxicity, cell-based
# conditionLabel: human, 48 h, 1 µM, compound concentration 1 uM, replicate 2
Output: the number by itself.

• CC(=O)c1cc(-c2cc(C(=O)NC3CC3)ccc2C)c2ncccn12 = 67
• O=C(O)c1ccc2cc(-c3ccc(O)c(C45CC6CC(CC(C6)C4)C5)c3)ccc2c1 = 73
• COc1cc2c(NC3CCN(C(C)C)CC3)nc(N3CCC(F)(F)CC3)nc2cc1OCCCN1CCCC1 = 141
• Nc1ccc(C(=O)Nc2cccc(-c3nc(N4CCOCC4)c4oc5ncccc5c4n3)c2)cn1 = 56

The compound listed as `CNc1oc(-c2cccc3ccccc23)nc1C#N` has a reported Total Cell Count of 155

Entry under test: `CCCn1c(=O)c2[nH]c(C34CC5CC(CC3C5)C4)nc2n(CCC)c1=O` . Its Total Cell Count was 103

The recorded Total Cell Count for entry `CC(C)N1CCC(C)(C)c2cc(C#Cc3ccc(C(=O)O)cc3)ccc21` equals 122

----------
Recorded Population Apoptotic (%) for the following compounds
# System: HEK-293T
# protocolDetails: Multiplex assay against HEK293T
# Type: toxicity, cell-based
# conditionLabel: human, 24 h, 1 µM, compound concentration 1 uM, replicate 2
Could you give me the number in %? Just the number is fine.

- CCc1cc2c(cc1CC)CC(NC[C@H](O)c1ccc(O)c3[nH]c(=O)ccc13)C2: 22
- Nc1ccc(C(=O)Nc2cccc(-c3nc(N4CCOCC4)c4oc5ncccc5c4n3)c2)cn1: 40
- COc1cc2c(Nc3ccc(NC(=O)c4ccccc4)cc3)ncnc2cc1OCCCN1CCOCC1: 2
- Nc1nc2c(c(N3CCNCC3)n1)CCC1=C2[C@@H]2CCCC[C@@H]2O1: 18
- Cc1nc(Cc2cccc(C(F)(F)F)c2)sc1-c1ccc(C(N)=O)nc1 [TP-024n]: 19
- CC(C)(C)c1cnc(CSc2cnc(NC(=O)C3CCNCC3)s2)o1: 22
- CCOc1cc2ncc(C#N)c(Nc3ccc(OCc4cccc(F)c4)c(Cl)c3)c2cc1NC(=O)/C=C/CN(C)C: 4
- COc1ccc(NS(=O)(=O)c2sc3ccc(Cl)cc3c2C)cc1N1CCNCC1.Cl: 22
- CN(C)CCOc1ccc(-c2nc(-c3ccncc3)c(-c3ccc4c(c3)CC/C4=N\O)[nH]2)cc1: 10
- CC(C)N1CCC(C)(C)c2cc(C#Cc3ccc(C(=O)O)cc3)ccc21: 14

Value of measured Population Apoptotic (%) for the entry `CCOc1cc(N2CCC(O)CC2)ccc1Nc1ncc2c(n1)N(C1CCCC1)CCC(=O)N2C` : 4

----------
# Tested on: Fibroblast
# protocolDetails: Incucyte cell viability with human fibroblast; also: filed as whole numbers so only -1 and 0 and 1 occur
# Assay type: toxicity, cell-based
# conditionLabel: 24 h, 10 µM, compound concentration 10 uM, replicate number 1, timepoint 24 hours
Growth Rate reference

The examples below pair each entry with its known result.
* CCCOc1ccc([C@@H]2[C@@H](C(=O)O)[C@H](c3ccc4c(c3)OCO4)CN2CC(=O)Nc2c(CC)cccc2CC)cc1 | 1
* CC(=O)c1cc(-c2cc(C(=O)NC3CC3)ccc2C)c2ncccn12 | 0
* Cc1nc(Cc2cccc(C(F)(F)F)c2)sc1-c1ccc(C(N)=O)nc1 [TP-024n] | 0
* COc1cc2c(cc1-c1c(C)noc1C)ncc1[nH]c(=O)n([C@H](C)c3ccccn3)c12 | 0
* COc1ccc(NS(=O)(=O)c2sc3ccc(Cl)cc3c2C)cc1N1CCNCC1.Cl | 0
* CNc1cc2[nH]c(=O)n(-c3ccc(NC(=O)NS(=O)(=O)c4ccc(Cl)s4)cc3)c(=O)c2cc1F | 1
* CC(C)Oc1ccc(C(=O)N[C@H](CNC(=O)CN(C)C)Cc2ccc(-c3cn4cccc([C@H](C)O)c4n3)cc2)cc1Cl [GSK-923295A] | 0

Please look at the following molecule next.
Tested on Fibroblast: `O=C(O)CC1CCC2(CC1)CCN(c1cc(OC(F)(F)F)ccc1Cl)CC2` . Observed Growth Rate: 1

----------
# Tested on: U2OS
# protocolDetails: Multiplex assay against U2OS
# Format: toxicity, cell-based
# conditionLabel: human, 24 h, 10 µM, compound concentration 10 uM, replicate 1
measurementLabel: Population Mitochondria Different-Phenotype (%)
Give your result as the value with the unit written after it.

Solved cases (8 shown):
* CCn1c(-c2nonc2N)nc2cnc(Oc3cccc(NC(=O)c4ccc(OCCN5CCOCC5)cc4)c3)cc21 [GSK-269962A] | 98%
* CNc1oc(-c2cccc3ccccc23)nc1C#N | 15%
* CN(C)C/C=C/C(=O)Nc1cc2c(Nc3ccc(F)c(Cl)c3)ncnc2cc1O[C@H]1CCOC1.O=C(O)/C=C\C(=O)O.O=C(O)/C=C\C(=O)O [AFATINIB DIMALEATE] | 66%
* Cc1c(Oc2ccc(F)cc2)c(OC(C)C)nn1-c1ccc(C2CC2)cn1 [IPP/CNRS-A019] | 9%
* O=C(O)c1ccc2cc(-c3ccc(O)c(C45CC6CC(CC(C6)C4)C5)c3)ccc2c1 [O-DEMETHYLATED ADAPALENE] | 20%
* N#Cc1cnc(Nc2cc(NC[C@H]3CNCCO3)c(C(F)(F)F)cn2)cn1 [SRA-737] | 10%
* COc1ccc(NS(=O)(=O)c2sc3ccc(Cl)cc3c2C)cc1N1CCNCC1.Cl | 98%
* c1ccc2oc(-c3csc(C4CCN(Cc5nc6ncccc6[nH]5)CC4)n3)cc2c1 | 14%

Memo: `Nc1ccc(C(=O)Nc2cccc(-c3nc(N4CCOCC4)c4oc5ncccc5c4n3)c2)cn1` , reported Population Mitochondria Different-Phenotype (%): 88%

Per the record, `CC(=O)c1cc(-c2cc(C(=O)NC3CC3)ccc2C)c2ncccn12` has Population Mitochondria Different-Phenotype (%) of 5%

Population Mitochondria Different-Phenotype (%) for `CC(C)N1CCC(C)(C)c2cc(C#Cc3ccc(C(=O)O)cc3)ccc21` is 6%

----------
Measured Population Healthy Nuclei (%) of individual entries
# Test system: Fibroblast
# protocolDetails: Multiplex assay against human fibroblast
# Assay type: toxicity, cell-based
# conditionLabel: 12 h, 10 µM, compound concentration 10 uM, replicate 1
Put down the number, then write its unit next to it.

- CCOc1cc(N2CCC(O)CC2)ccc1Nc1ncc2c(n1)N(C1CCCC1)CCC(=O)N2C: 58%

The reported value for `CC(C)(C)c1cnc(CSc2cnc(NC(=O)C3CCNCC3)s2)o1` in terms of Population Healthy Nuclei (%) is 54%

The value of Population Healthy Nuclei (%) measured for the compound CN(C)C/C=C/C(=O)Nc1cc2c(Nc3ccc(F)c(Cl)c3)ncnc2cc1O[C@H]1CCOC1.O=C(O)/C=C\C(=O)O.O=C(O)/C=C\C(=O)O [AFATINIB DIMALEATE] turned out to be 50%

Entry `CCCn1c(=O)c2[nH]c(C34CC5CC(CC3C5)C4)nc2n(CCC)c1=O` — recorded Population Healthy Nuclei (%) = 42%

----------
# Test system: Fibroblast
# protocolDetails: Multiplex assay against human fibroblast
# Format: toxicity, cell-based
# conditionLabel: 12 h, 1 µM, compound concentration 1 uM, replicate 2
measurementLabel: Population Mitochondria Different-Phenotype (%)
Give a bare numeral; the unit % is implied.

In the examples that follow, each entry is paired with its recorded Population Mitochondria Different-Phenotype (%).
* Nc1ccc(C(=O)Nc2cccc(-c3nc(N4CCOCC4)c4oc5ncccc5c4n3)c2)cn1 | 21
* CC(C)Oc1ccc(C(=O)N[C@H](CNC(=O)CN(C)C)Cc2ccc(-c3cn4cccc([C@H](C)O)c4n3)cc2)cc1Cl [GSK-923295A] | 31

compound `CNC(=O)c1cc(Oc2ccc(NC(=O)Nc3cc(C(C)(C)C)nn3-c3ccc4ncccc4c3)c(F)c2)ccn1` , Population Mitochondria Different-Phenotype (%) observed: 6

For `Cl.Cl.Nc1ncnc2c1c(-c1cccc(OCc3ccccc3)c1)cn2[C@H]1C[C@@H](CN2CCC2)C1` the compound record lists Population Mitochondria Different-Phenotype (%) as 71

The reported Population Mitochondria Different-Phenotype (%) of the compound `N#Cc1cnc(Nc2cc(NC[C@H]3CNCCO3)c(C(F)(F)F)cn2)cn1` was 0

// Population Mitochondria Different-Phenotype (%) value for `O=C(O)c1ccc2cc(-c3ccc(O)c(C45CC6CC(CC(C6)C4)C5)c3)ccc2c1` : 16

get_value(item= `CCOc1cc2ncc(C#N)c(Nc3ccc(OCc4cccc(F)c4)c(Cl)c3)c2cc1NC(=O)/C=C/CN(C)C` , readout=Population Mitochondria Different-Phenotype (%)) returns 9

Noted for `Cc1cc2c(cc1N1C(=O)c3cccc4c(CCCO)ccc(c34)C1=O)n(C)c(=O)n2C` : its Population Mitochondria Different-Phenotype (%) reads 22

Memo: `CC(C)(C)c1cnc(CSc2cnc(NC(=O)C3CCNCC3)s2)o1` , reported Population Mitochondria Different-Phenotype (%): 5

// `CNC(=O)c1nn(C)c2c1C(C)(C)Cc1cnc(Nc3ccc(N4CCN(C)CC4)cc3)nc1-2` : Population Mitochondria Different-Phenotype (%) value = 31

// Population Mitochondria Different-Phenotype (%) lookup, compound = CN(C)C/C=C/C(=O)Nc1cc2c(Nc3ccc(F)c(Cl)c3)ncnc2cc1O[C@H]1CCOC1.O=C(O)/C=C\C(=O)O.O=C(O)/C=C\C(=O)O [AFATINIB DIMALEATE] , result: 30

Lab note: measured Population Mitochondria Different-Phenotype (%) of CCn1c(-c2nonc2N)nc2cnc(Oc3cccc(NC(=O)c4ccc(OCCN5CCOCC5)cc4)c3)cc21 [GSK-269962A] was 16
